FYI, the data here is from patent US9096601B2.

# Test system: non-small cell lung carcinoma cell strain PC-9 (EGFR delE746-A750 deletion mutation)
# test-name: In-vitro tumor cell proliferation inhibition, MTT
# Assay type: cell-based, human
# assay-conditions: 72 hours
parameter: pIC50
Expect pIC50 as a plain number equal to -log10 of the molar concentration.

>>> print(df.to_string())
                              line_notation                            assayed_system  parameter  observed_value
0  COc1cccc(Nc2nc3cnc(Nc4ccc(N5CCN(C)CC5)cc4)nc3n2C(C)C)c1  non-small cell lung carcinoma cell strain PC-9 (EGFR delE746-A750 deletion mutation)      pIC50            8.60
1  CC(C)n1c(Nc2cccc(C(F)(F)F)c2)nc2cnc(Nc3ccc(N4CCN(C)CC4)cc3)nc21  non-small cell lung carcinoma cell strain PC-9 (EGFR delE746-A750 deletion mutation)      pIC50            7.77
2  Cc1nc(Nc2ccc(N3CCN(C)CC3)cc2)nc2c1nc(Nc1ccccc1)n2C(C)C  non-small cell lung carcinoma cell strain PC-9 (EGFR delE746-A750 deletion mutation)      pIC50            6.38
3  COc1ccc(Nc2nc3cnc(Nc4ccc(N5CCN(C)CC5)cc4)nc3n2C(C)C)cc1  non-small cell lung carcinoma cell strain PC-9 (EGFR delE746-A750 deletion mutation)      pIC50            7.46

Now let's try a different one.
Which measured pIC50 value corresponds to "CN1CCN(NC(=O)c2ccc(Nc3ncc4nc(Nc5cccnc5)n(C5CCCC5)c4n3)cc2)CC1" ?
6.46
